Assay: NCI Yeast Anticancer Drug Screen. Data for the mlh1 rad18 strain (AID 175)
Conditions: S. cerevisiae mlh1 rad18 strain growth inhibition; at 50.0 µM; hits give high values
About 79,000 compounds went through this panel and 15% of them were active in at least one assay; those are over-represented in the sample as a whole.
parameter: growth inhibition (%)
Give a bare numeral; the unit % is implied.

Sample answers from the record:
{"compound": "CC(C)[N+](=C1O[B-](c2ccccc2)(c2ccccc2)O[B-]1(c1ccccc1)[C+]1CCCCC1)C(C)C (stereo unspecified)", "unit-name": "%", "growth inhibition": 2.2}
{"compound": "COc1cc([N+](=O)[O-])ccc1NC(=O)Nc1c(C)n(C)n(-c2ccccc2)c1=O", "unit-name": "%", "growth inhibition": 6.25}
{"compound": "OCCn1c2ccccc2c2ccccc21", "unit-name": "%", "growth inhibition": -0.7}
{"compound": "Cc1cccc(-n2cnc3c(N(CCO)CCO)ncnc32)c1", "unit-name": "%", "growth inhibition": -4.3}
{"compound": "CCCCCNC(=S)NNC(N)=O", "unit-name": "%", "growth inhibition": -0.75}

Let us move to another entry and its growth inhibition.
The reported value for "c1ccc2c(c1)oc1cc3c(cc12)n1nnnc1c1cccn31" in terms of growth inhibition is -7.8
